FYI, the data here is from patent US20020137929A1.

Test system: GLXMAW (Soybean, Williams)
protocolSummary: Preemergence herbicidal evaluation
Type: in vivo, Glycine max, (L.) Merr. cv Williams
measurementConditions: rate 0.1250 kg/ha; rated 4-5 weeks after treatment
Assignment: determine reported GLXMAW preemergence herbicidal rating for the given compounds.
Give bare numbers.

Below, 5 compounds whose answers are already recorded.
- compound: "CCOC(=O)CN1C(=O)C(=C2CCCC2)SC1=Nc1cc(-n2c(=O)cc(C(F)(F)F)n(C)c2=O)c(F)cc1Cl"
  assayedTarget: "GLXMAW (Soybean, Williams)"
  GLXMAW preemergence herbicidal rating: 0.0
- compound: "CC1SC(=Nc2cc(-n3c(=O)cc(C(F)(F)F)n(C)c3=O)c(F)cc2Cl)N(C)C1=O (stereo not shown)"
  assayedTarget: "GLXMAW (Soybean, Williams)"
  GLXMAW preemergence herbicidal rating: 8.7
- compound: "CCC1SC(=Nc2cc(-n3c(=O)cc(C(F)(F)F)n(C)c3=O)c(F)cc2Cl)N(C)C1=O (stereo not shown)"
  assayedTarget: "GLXMAW (Soybean, Williams)"
  GLXMAW preemergence herbicidal rating: 6.7
- compound: "CCOC(=O)CN1C(=O)C(F)SC1=Nc1cc(-n2c(=O)cc(C(F)(F)F)n(C)c2=O)c(F)cc1Cl (stereo not shown)"
  assayedTarget: "GLXMAW (Soybean, Williams)"
  GLXMAW preemergence herbicidal rating: 6.0
- compound: "CN1C(=O)CSC1=Nc1cc(N2C(=O)C3=C(CCCC3)C2=O)c(F)cc1Cl"
  assayedTarget: "GLXMAW (Soybean, Williams)"
  GLXMAW preemergence herbicidal rating: 2.0

Batch request: GLXMAW preemergence herbicidal rating for each of the following compounds.
1. CCOC(=O)CN1C(=O)C(C)SC1=Nc1cc(-n2c(=O)cc(C(F)(F)F)n(C)c2=O)c(F)cc1Cl (stereo not shown)
2. CCOC(=O)CN1C(=O)C(=C(C)C)S/C1=N/c1cc(-n2c(=O)cc(C(F)(F)F)n(C)c2=O)c(F)cc1Cl

Solution:
6.5
0.0
